The following molecules are listed with their measured growth inhibition values.
Assay: NCI Yeast Anticancer Drug Screen. Data for the CLN2oe strain (AID 163);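 further: 0% = growth of vehicle-only control cultures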
Conditions: S. cerevisiae CLN2oe strain, at 11.0 µM, stronger effect = higher value
Procedure: Growth inhibition of yeast strains with defined genetic alterations is measured as a screen for potential anti-cancer activity. Selected strains with alterations in DNA damage repair or cell cycle control were exposed to compounds and growth inhibition was measured relative to vehicle treated controls. The strain used in this assay is CLN2oe
The panel holds about 79,000 compounds, 15% with a hit somewhere; the sample as a whole holds those more often.
Give the value in % but do not write % after it.

Sample COc1ccc2nc3cccc([N+](=O)[O-])c3c(NCCNCCN(C)C)c2c1 — what was its growth inhibition? -11

// next record COC1=CCC23C(=O)C=CC(=O)C2(C1)C(=O)c1ccccc1C3=O (stereo unspecified) 18

// next record NC(=S)N1N=C2c3ccccc3CC[C@H]2[C@@H]1c1ccc(Cl)cc1 18

// next record O=C1C(=O)N(c2ccccc2)[C@@]2(c3ccccc3)C(=Nc3ccccc3)OC(c3ccccc3)=C12 1

// next record C=C(C(=O)OC)N1C(=O)CC(C)C1=O (stereo unspecified) 10

// next record CC(C)C(=O)CC(Sc1ccc(N)cc1)c1ccccc1 (stereo unspecified) -7

// next record CCCCCCCCCCCCCCCCCCNC(=S)/N=C/c1c(O)c2ccccc2[nH]c1=O 2

// next record CCOC(=S)SSSC(=S)OCC 18

// next record CC1=NN(C(=O)c2ccccc2O)C(=O)/C1=C/c1ccco1 81

// next record Fc1cc(F)c(F)c(S)c1F 8

// next record CCS(=O)(=O)Nc1ccc(Nc2c3ccccc3nc3ccccc23)c(OC)c1 -2

// next record CCOC(=O)/C(=C/c1cccc(Cl)c1)N(CC)CC 20

// next record Oc1ccc(N=Nc2ccc(Cl)cc2)cc1 97

// next record CCCCCCCCCCCCCCN -14

// next record COc1ccc2cc3c4cc5c(cc4cc[n+]3cc2c1OC)OCO5 49

---

Assay: NCI Yeast Anticancer Drug Screen. Data for the wt1 strain (AID 149);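 further: 0% = growth of vehicle-treated wt1 cultures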
Conditions: S. cerevisiae wt1 strain (SPY 50644) growth inhibition; at 100.0 µM; stronger effect = higher value
About 79,000 compounds went through this panel and 15% of them were active in at least one assay; those are over-represented in the sample as a whole.
Please mark met if the recorded growth inhibition is equal to or greater than 20%, and not met if it falls below.

Some solved entries appear below for comparison.
CC/C(=C(\c1ccccc1)c1ccc(OCC[N+](C)(C)C)cc1)c1ccccc1; met
CCCCCCCCN1COCC(COc2ccccc2C)OC1 (stereo not drawn); met
COc1ccc2c(c1)CCCC(Br)C2=O (stereo not drawn); met
CCOc1ccc(N)c(S)c1; met
Oc1ccc(C2(c3ccc(O)cc3)CCCC2)cc1; met
NNc1ccccc1-c1nc2ccccc2[nH]1; met
CCc1c(Cl)c(C)c(Cl)c(O)c1Cl; met
CCOC(=O)CC1(C)/C(=N\Nc2ccc([N+](=O)[O-])cc2[N+](=O)[O-])CCC2C1CCC1(C)C(C(C)CCCC(C)C)CCC21 (stereo not drawn); not met
COc1cc(NCCCCNCC(C)(C)C)c2ncccc2c1; not met
O=C1c2ccccc2-c2cc3ccccc3c(=O)n21; met

Then this compound:
Is growth inhibition at least 20%? Consider O=S(=O)(c1cccc(C(F)(F)F)c1)N1c2ccccc2-n2cccc2C1c1cccnc1 (stereo not drawn) met
